# Test system: Rattus norvegicus
# Assay overview: In vivo inhibition of passive cutaneous anaphylaxis in rats when administered i.v.
# Assay type: functional
# Condition label: iv, read-out: ID50 (the source's name)
Criterion: ED50 strictly under 20 mg/kg. Met: TRUE. Not met: FALSE.

Consider the worked cases shown below.
INSERT INTO measurements (molecule, group) VALUES
  ('O=C([O-])c1cc(=O)c2c(o1)-c1ccccc1OC2.[K+]', 'TRUE'),
  ('O=c1c(CO)coc2c1CSc1ccccc1-2', 'FALSE'),
  ('Cc1ccc(Cl)c2c1SCc1c-2oc(C(=O)O)cc1=O.NCCO', 'FALSE'),
  ('CCCCc1ccc2c(c1)-c1nc(C(=O)O)cc(O)c1CS2.NCCO', 'TRUE');

[in] Determine whether this molecule shows ED50 lower than 20 mg/kg (ties excluded): NCCO.O=C(O)c1cc(=O)c2c(o1)-c1cc(Cl)ccc1SC2
[out] FALSE

* * *

# Test system: Rattus norvegicus
# Assay overview: In vivo inhibition of passive cutaneous anaphylaxis in rats when administered i.v.
# Assay type: functional
# Condition label: iv, read-out: ID50 (the source's name)
Please use satisfied for ED50 under 8 mg/kg and not satisfied for everything else, ties included.

INSERT INTO assay_data (compound, group) VALUES
  ('O=C([O-])c1cc(=O)c2c(OCC(O)COc3cccc4oc(C(=O)[O-])cc(=O)c34)cccc2o1.[Na+].[Na+] [CROMOLYN SODIUM]', 'satisfied'),
  ('NCCO.O=C(O)c1cc(O)c2c(n1)-c1ccccc1SC2', 'satisfied'),
  ('Cc1ccc2c(c1)-c1oc(C(=O)O)cc(=O)c1CS2.NCCO', 'not satisfied'),
  ('NCCO.O=C(O)c1cc(O)c2c(n1)-c1cc(Cl)ccc1SC2', 'satisfied'),
  ('CCC(C)c1ccc2c(c1)-c1oc(C(=O)O)cc(=O)c1CS2.NCCO (stereo not drawn)', 'not satisfied'),
  ('NCCO.O=C(O)c1cc(=O)c2c(o1)-c1ccccc1S(=O)(=O)C2', 'not satisfied'),
  ('CCC(C)c1ccc2c(c1)-c1nc(C(=O)O)cc(O)c1CS2(=O)=O (stereo not drawn)', 'not satisfied'),
  ('CC1Sc2ccccc2-c2oc(C(=O)O)cc(=O)c21.NCCO (stereo not drawn)', 'not satisfied');

[in] Field: below-cutoff. Rule: recorded ED50 strictly less than 8 mg/kg. Subject: NCCO.O=C(O)c1cc(=O)c2c(o1)-c1ccccc1SC2
[out] not satisfied

[in] Same again, this time with Cc1ccc2c(c1)-c1nc(C(=O)O)cc(O)c1CS2.NCCO
[out] satisfied

[in] Now consider CCCCc1ccc2c(c1)-c1oc(C(=O)O)cc(=O)c1CS2.NCCO .
[out] not satisfied

[in] What do you get for Cc1ccc(Cl)c2c1SCc1c(O)cc(C(=O)O)nc1-2.NCCO ?
[out] not satisfied
